- measuredTarget: T1, PHF-tau (paired helical filament tau isolated from Alzheimer's disease brain) (human, UniProt P10636-8 2-441, limits assumed, hyper-phosphorylated, aggregated; sites not listed for the preparation)
- T1 construct: also called enriched PHF-tau; ePHF-tau
- T1 sequence (P10636 other isoform, or with tags, fused parts or gaps limits assumed): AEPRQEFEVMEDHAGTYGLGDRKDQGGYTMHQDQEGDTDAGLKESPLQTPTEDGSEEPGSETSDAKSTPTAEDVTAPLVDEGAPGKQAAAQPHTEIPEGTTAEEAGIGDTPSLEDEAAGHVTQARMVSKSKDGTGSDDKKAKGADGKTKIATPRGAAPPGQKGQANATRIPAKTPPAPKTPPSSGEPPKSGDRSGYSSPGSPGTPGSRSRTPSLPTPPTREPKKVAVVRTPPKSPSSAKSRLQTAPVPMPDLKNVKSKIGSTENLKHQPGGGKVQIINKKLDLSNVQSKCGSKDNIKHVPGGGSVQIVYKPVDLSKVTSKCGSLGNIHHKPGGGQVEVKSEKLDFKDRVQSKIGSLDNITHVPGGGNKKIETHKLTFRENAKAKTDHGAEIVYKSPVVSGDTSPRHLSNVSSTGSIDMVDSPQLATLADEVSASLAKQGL
- measurementNotes: SPR ProteOn, PHF-tau capture-coupled via HT7, 1:1 model
observable: kon (M⁻¹ s⁻¹)
Give just the number in M⁻¹ s⁻¹; leave the unit off.

# count of solved cases: 3
B330 (Fab of B711) (Fab, V domains shown, the Fab's constant parts and tag are not described; also called M330; M333 (the Fab of B711)) VH: QVQLVESGGGVVQPGRSLRLSCAASGFTFTSYAMSWVRQAPGKGLEWVASITKGGNTYYADSVKGRFTISRDNSKNTLYLQMNSLRAEDTAVYYCARGWGIYGWFAYWGQVTLVTVSS VL: DIQMTQSPSSLSASVGDRVTITCKASQDINRWLNWFQQKPGKAPKSLIYRANRLLDGVPSRFSGSGSGTDFTLTISSLQPEDFATYYCLQYDEFPLTFGQGTKLEIK
4.6e+06
B324 (Fab of B296) (Fab, V domains shown, also called M324; B296 Fab) VH: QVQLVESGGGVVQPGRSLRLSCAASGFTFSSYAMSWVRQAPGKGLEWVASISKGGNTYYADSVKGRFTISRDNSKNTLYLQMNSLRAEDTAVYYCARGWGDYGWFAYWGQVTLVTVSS VL: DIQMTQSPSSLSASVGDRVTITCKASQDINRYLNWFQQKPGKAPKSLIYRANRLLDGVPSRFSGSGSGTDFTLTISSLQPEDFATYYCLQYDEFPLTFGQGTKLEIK
1.43e+06
B332 (Fab of B809) (Fab, V domains shown) VH: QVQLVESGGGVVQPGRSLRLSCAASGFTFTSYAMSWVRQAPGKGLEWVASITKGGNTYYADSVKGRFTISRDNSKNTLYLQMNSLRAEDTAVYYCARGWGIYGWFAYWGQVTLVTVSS VL: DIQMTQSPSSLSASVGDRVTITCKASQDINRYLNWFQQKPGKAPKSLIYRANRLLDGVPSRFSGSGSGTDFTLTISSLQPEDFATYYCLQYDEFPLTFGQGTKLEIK
4.64e+06

The recorded kon for entry B331 (Fab of B333) (Fab, V domains shown) VH: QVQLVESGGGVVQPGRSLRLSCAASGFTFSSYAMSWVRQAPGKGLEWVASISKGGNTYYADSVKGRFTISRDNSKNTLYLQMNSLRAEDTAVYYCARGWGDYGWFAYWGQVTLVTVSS VL: DIQMTQSPSSLSASVGDRVTITCKASQDINRWLNWFQQKPGKAPKSLIYRANRLLDGVPSRFSGSGSGTDFTLTISSLQPEDFATYYCLQYDEFPLTFGQGTKLEIK equals 1.72e+06
